Origin of the recorded values: the supplement of paper PMC9112550

# System: Escherichia coli TOP10
# experiment.summary: shrunken log2 fold change of peptide-encoding DNA abundance (4.5 h post-induction vs induction); higher = less antimicrobial activity (less host growth inhibition)
# recorded.conditions: time post-induction: 4.5 h; library: site-saturation at positions 5, 18, 19, 20
Use -0.08 as the dividing line for shrunken log2 fold change, with the line itself on the t side and lower values as f.

Please review the entries below; each comes with its answer.
            query_sequence             target_desc  label_class
0  RRIRTRPPRLPRPRPRPEYRPRP  Escherichia coli TOP10            t
1  RRIRQRPPRLPRPRPRPCEWPRP  Escherichia coli TOP10            t
2  RRIRNRPPRLPRPRPRPWFCPRP  Escherichia coli TOP10            f

INPUT: Item `RRIRCRPPRLPRPRPRPMMCPRP` with shrunken log2 fold change of -0.08 or above?
OUTPUT: t

INPUT: Item `RRIRKRPPRLPRPRPRPIPHPRP` with shrunken log2 fold change of -0.08 or above?
OUTPUT: t

INPUT: Item `RRIRPRPPRLPRPRPRPSHVPRP` with shrunken log2 fold change of -0.08 or above?
OUTPUT: f

INPUT: Item `RRIRCRPPRLPRPRPRPMWVPRP` with shrunken log2 fold change of -0.08 or above?
OUTPUT: t

INPUT: Item `RRIRERPPRLPRPRPRPACIPRP` with shrunken log2 fold change of -0.08 or above?
OUTPUT: t

INPUT: Item `RRIRYRPPRLPRPRPRPNMFPRP` with shrunken log2 fold change of -0.08 or above?
OUTPUT: f

* * *

# Tested on: Escherichia coli TOP10
# experiment.summary: shrunken log2 fold change of peptide-encoding DNA abundance (4.5 h post-induction vs induction); higher = less antimicrobial activity (less host growth inhibition)
# recorded.conditions: time post-induction: 4.5 h; library: site-saturation at positions 5, 18, 19, 20
Recorded shrunken log2 fold change split into classes A: < -0.1; B: ≥ -0.1 and < 0.07; C: ≥ 0.07

>>> df
            query_sequence             target_desc  label_class
0  RRIRMRPPRLPRPRPRPNMKPRP  Escherichia coli TOP10            B
1  RRIRPRPPRLPRPRPRPHFVPRP  Escherichia coli TOP10            A
2  RRIRTRPPRLPRPRPRPKEMPRP  Escherichia coli TOP10            B
3  RRIRNRPPRLPRPRPRPYYNPRP  Escherichia coli TOP10            A
4  RRIRCRPPRLPRPRPRPMFYPRP  Escherichia coli TOP10            A

INPUT: // bin(item) where item = `RRIRGRPPRLPRPRPRPELQPRP`
OUTPUT: C

INPUT: // bin(item) where item = `RRIRVRPPRLPRPRPRPNGVPRP`
OUTPUT: A

INPUT: // bin(item) where item = `RRIRERPPRLPRPRPRPITRPRP`
OUTPUT: A

INPUT: // bin(item) where item = `RRIRERPPRLPRPRPRPVMCPRP`
OUTPUT: B

INPUT: // bin(item) where item = `RRIRGRPPRLPRPRPRPMELPRP`
OUTPUT: C

INPUT: // bin(item) where item = `RRIRERPPRLPRPRPRPCFHPRP`
OUTPUT: A

* * *

# System: Escherichia coli TOP10
# experiment.summary: shrunken log2 fold change of peptide-encoding DNA abundance (4.5 h post-induction vs induction); higher = less antimicrobial activity (less host growth inhibition)
# recorded.conditions: time post-induction: 4.5 h; library: site-saturation at positions 5, 18, 19, 20
Use -0.05 as the dividing line for shrunken log2 fold change, with the line itself on the MET side and lower values as NOT MET.

Please review the entries below; each comes with its answer.
>>> df
            query_sequence  label_class
0  RRIRLRPPRLPRPRPRPQCNPRP          MET
1  RRIRERPPRLPRPRPRPVVMPRP          MET
2  RRIRTRPPRLPRPRPRPVFCPRP      NOT MET
3  RRIRHRPPRLPRPRPRPQLEPRP          MET
4  RRIRHRPPRLPRPRPRPWIHPRP      NOT MET
5  RRIRYRPPRLPRPRPRPINMPRP      NOT MET

INPUT: Item `RRIRVRPPRLPRPRPRPFCFPRP` with shrunken log2 fold change of -0.05 or above?
OUTPUT: MET

INPUT: Item `RRIRYRPPRLPRPRPRPHDHPRP` with shrunken log2 fold change of -0.05 or above?
OUTPUT: MET

INPUT: Item `RRIRLRPPRLPRPRPRPQGNPRP` with shrunken log2 fold change of -0.05 or above?
OUTPUT: MET

* * *

# Test system: Escherichia coli TOP10
# experiment.summary: shrunken log2 fold change of peptide-encoding DNA abundance (4.5 h post-induction vs induction); higher = less antimicrobial activity (less host growth inhibition)
# recorded.conditions: time post-induction: 4.5 h; library: site-saturation at positions 5, 18, 19, 20
Quick reference for shrunken log2 fold change among some sequences
Lab note: write the figure by itself, no unit.

Reference set, count: 10
            query_sequence  test_value
0  RRIRPRPPRLPRPRPRPQQTPRP       0.183
1  RRIRWRPPRLPRPRPRPVEDPRP     0.00386
2  RRIRDRPPRLPRPRPRPCLKPRP   -0.000218
3  RRIRMRPPRLPRPRPRPSWNPRP       -0.15
4  RRIRSRPPRLPRPRPRPSEGPRP      -0.559
5  RRIRYRPPRLPRPRPRPGGCPRP      0.0169
6  RRIRDRPPRLPRPRPRPLQVPRP      0.0133
7  RRIRPRPPRLPRPRPRPYLFPRP      -0.434
8  RRIRQRPPRLPRPRPRPFREPRP     -0.0101
9  RRIRERPPRLPRPRPRPPPAPRP       0.365

Note to self: shrunken log2 fold change recorded for `RRIRPRPPRLPRPRPRPMWIPRP` was -0.237

Note to self: shrunken log2 fold change recorded for `RRIRGRPPRLPRPRPRPKITPRP` was 0.413

Note to self: shrunken log2 fold change recorded for `RRIRSRPPRLPRPRPRPCSDPRP` was 0.21

Note to self: shrunken log2 fold change recorded for `RRIRTRPPRLPRPRPRPAHKPRP` was 0.0105

Note to self: shrunken log2 fold change recorded for `RRIRDRPPRLPRPRPRPAQEPRP` was 0.185

Note to self: shrunken log2 fold change recorded for `RRIRLRPPRLPRPRPRPQPAPRP` was 0.294

Note to self: shrunken log2 fold change recorded for `RRIRKRPPRLPRPRPRPISWPRP` was -0.0574

Note to self: shrunken log2 fold change recorded for `RRIRLRPPRLPRPRPRPLWVPRP` was 0.0349

Note to self: shrunken log2 fold change recorded for `RRIRMRPPRLPRPRPRPLFLPRP` was -0.254

Note to self: shrunken log2 fold change recorded for `RRIRIRPPRLPRPRPRPPDMPRP` was -0.16

* * *

# Test system: Escherichia coli TOP10
# experiment.summary: shrunken log2 fold change of peptide-encoding DNA abundance (4.5 h post-induction vs induction); higher = less antimicrobial activity (less host growth inhibition)
# recorded.conditions: time post-induction: 4.5 h; library: site-saturation at positions 5, 18, 19, 20
Recorded shrunken log2 fold change split into classes lower band (below -0.2), central band (-0.2 to below 0.06), upper band (0.06 or more)

In [3]: df
Out[3]:
            query_sequence             target_desc  label_class
0  RRIRKRPPRLPRPRPRPTPVPRP  Escherichia coli TOP10   upper band

INPUT: // bin(item) where item = `RRIRFRPPRLPRPRPRPSVIPRP`
OUTPUT: lower band

INPUT: // bin(item) where item = `RRIRHRPPRLPRPRPRPDSAPRP`
OUTPUT: lower band

INPUT: // bin(item) where item = `RRIRIRPPRLPRPRPRPTKIPRP`
OUTPUT: central band

INPUT: // bin(item) where item = `RRIRYRPPRLPRPRPRPSRFPRP`
OUTPUT: central band

INPUT: // bin(item) where item = `RRIRYRPPRLPRPRPRPTFQPRP`
OUTPUT: central band

INPUT: // bin(item) where item = `RRIRVRPPRLPRPRPRPLSRPRP`
OUTPUT: central band

INPUT: // bin(item) where item = `RRIRRRPPRLPRPRPRPLCCPRP`
OUTPUT: upper band

INPUT: // bin(item) where item = `RRIRQRPPRLPRPRPRPMQFPRP`
OUTPUT: upper band

* * *

Quick reference for shrunken log2 fold change among some sequences
# Tested on: Escherichia coli TOP10;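 note: peptides expressed intracellularly from a pBAD plasmid library in pooled LB shake-flask culture, induced with 0.3% L-arabinose, DNA abundance read by NGS, three biological replicates, DESeq2 with apeglm shrinkage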
# experiment.summary: shrunken log2 fold change of peptide-encoding DNA abundance (4.5 h post-induction vs induction); higher = less antimicrobial activity (less host growth inhibition)
# recorded.conditions: time post-induction: 4.5 h; library: site-saturation at positions 5, 18, 19, 20
Lab note: write the figure by itself, no unit.

Reference set, count: 4
>>> print(df.to_string())
            query_sequence  test_value
0  RRIRGRPPRLPRPRPRPNGNPRP      0.0103
1  RRIRARPPRLPRPRPRPQPPPRP       0.715
2  RRIRQRPPRLPRPRPRPINAPRP      -0.116
3  RRIRPRPPRLPRPRPRPSMRPRP       0.501

Note to self: shrunken log2 fold change recorded for `RRIRYRPPRLPRPRPRPFPIPRP` was -0.705
